EXPERIMENTAL_SYSTEM: Glutamate NMDA receptor (Rattus norvegicus) (UniProt P35439+Q00959+Q00960+Q00961+Q62645+Q8VHN2+Q9R1M7)
MEASUREMENT_PROTOCOL: Apparent dissociation constant of [3H]glycine from N-methyl-D-aspartate glutamate receptor in rat cortical slice preparation expressed as log values.
List of -Log 1/Kb values.
Form field (numeric): enter value without unit.

Look over these answered cases.
| SMILES_CODE | -Log 1/Kb |
| --- | --- |
| O=C(O)c1cc(O)c2ccc(C(F)(F)F)cc2n1 | 3.52 |
| O=C(O)c1cc(O)c2c(I)cccc2n1 | 5.12 |

// switching to the query compound
Ask: Recorded -Log 1/Kb for Cc1cccc2nc(C(=O)O)cc(O)c12 , please?
Reply: 4.68

###

EXPERIMENTAL_SYSTEM: Glutamate receptor ionotropic, AMPA (Rattus norvegicus) (UniProt P19491+P19492+P19493+P19490)
MEASUREMENT_PROTOCOL: Apparent dissociation constant of [3H]AMPA from Quisqualate receptor was determined in rat cortical slice preparation at 100 uM; Inactive
Calls of active or inactive are those of the source. The calls are words filed in the database; no cut-off is given here.
METRIC: Kb

| SMILES_CODE | METRIC | RESULT |
| --- | --- | --- |
| COc1cc(C(=O)O)nc2cc(Cl)cc(Cl)c12 | Kb | inactive |
| O=C(O)CNc1cc(Cl)cc(Cl)c1 | Kb | inactive |
| O=C(O)c1cc(O)c2cccc(Cl)c2n1 | Kb | inactive |
| O=C(O)C(=O)Nc1cc(Cl)cc(Cl)c1 | Kb | inactive |

Continue with the next compound.
Ask: Any idea what Kb was measured for Cn1c(C(=O)O)cc(=O)c2c(Cl)cc(Cl)cc21 ?
Reply: inactive

###

EXPERIMENTAL_SYSTEM: Glutamate receptor ionotropic, AMPA (Rattus norvegicus, UniProt P19490+P19491+P19492+P19493)
MEASUREMENT_PROTOCOL: Inhibition of [3H]-AMPA binding to AMPA receptor of rat cortical membrane
METRIC: pIC50
Remember, pIC50 is on a log scale: it is -log10 of the molar concentration.

Worked examples follow.
| MOLECULE | pIC50 |
| --- | --- |
| O=C(O)c1cc(=O)c2ccccc2[nH]1 [TRANSTORINE] | 4.00 |
| O=C(O)c1cc(O)c2cc(Cl)ccc2n1 | 4.39 |

Let us examine a further case.
Ask: Can you look up the measured pIC50 of O=C(O)c1cc(O)c2ccc(Cl)cc2n1 [7-CHLOROKYNURENIC ACID] for me?
Reply: 3.82

###

EXPERIMENTAL_SYSTEM: Glutamate NMDA receptor
MEASUREMENT_PROTOCOL: Inhibition of [3H]glycine binding to glycine site of N-methyl-D-aspartate glutamate receptor in rat cortical membranes
Assay type: cell membranes, Membrane
METRIC: pIC50
# reply with the number alone; pIC50 is -log10 of concentration in mol/L

Example results:
| SMILES_CODE | QUANTITATIVE_RESULT |
| --- | --- |
| Oc1nc2ccccc2nc1O | 4.41 |
| O=C(O)c1cc(O)c2c(Cl)cc(Cl)cc2n1 | 6.70 |
| CCc1cc(Cl)cc2nc(C(=O)O)cc(O)c12 | 6.59 |
| O=C(O)CNc1cc(Cl)cc(Cl)c1 | 4.31 |
| CCc1cc(Br)cc2nc(C(=O)O)cc(O)c12 | 7.18 |
| O=C(O)c1cc(O)c2c(Cl)cc(I)cc2n1 | 6.19 |

// switching to the query molecule
Ask: pIC50 for Cc1cc(Br)c2c(O)cc(C(=O)O)nc2c1 ?
Reply: 6.09
